- target_or_system: hCA IX (Homo sapiens)
- Construct: made in house
- assay_remarks: stopped-flow CO2 hydrase assay, hCA IX
- Type: biochemical
- condition_summary: ratio of Ki values
Each record here notes measured Selectivity Index hCA II/hCA IX.

Please review the following examples before continuing.
molecule_smiles	Selectivity Index hCA II/hCA IX
CC1=NN(c2ccc(C)cc2)C(=O)/C1=C/Nc1ccc(C(=O)O)cc1[N+](=O)[O-]	>1661.1
O=C(O)c1ccc(Sc2nnnn2-c2ccccc2)c([N+](=O)[O-])c1	>2136.8

// moving on: another record for Selectivity Index hCA II/hCA IX
Endpoint output: Selectivity Index hCA II/hCA IX of N#Cc1ccc(NCCc2ccccc2)c([N+](=O)[O-])c1 . Value? >632.1
